Just for reference, patent US12286632B2 is where these values come from.

Assay: in vitro
Settings: NK cells
Ends that are not written are not given here.
MEASUREMENT LABEL: viability at 1.5 h, 1 µM

According to the records, this sequence LLKLWSRLLKLWTQGGSGGGSGRRLKAKRAKA [FSD18] displays viability at 1.5 h, 1 µM of 99.1%

###

I'd appreciate it if you could supply viability at 1 min, 1 µM values for the items below.
Experiment: in vitro
Conditions: human, THP-1 cells
Ends that are not written are not given here.
Provide the reading as a plain figure in %.

According to the records, this sequence KWKLARAFARAIKKLGGSGGGSYARALRRQARTG [FSD10] displays viability at 1 min, 1 µM of 93.5

According to the records, this sequence LLKLWSRLLKLWTQGGSGGGSGRRLKAKRAKA [FSD18] displays viability at 1 min, 1 µM of 95.3

###

Experiment: in vitro
Details: human, HCC-78 cells
Ends that are not written are not given here.
I'd appreciate it if you could supply viability at 1 min, 8 µM values for the items below.

According to the records, this sequence KWKLARAFARAIKKLGGSGGGSYARALRRQARTG [FSD10] displays viability at 1 min, 8 µM of 76.1%

According to the records, this sequence KWKLARAFARAIKKLYARALRRQARTG [FSD12] displays viability at 1 min, 8 µM of 66.3%

According to the records, this sequence HHHHHHLLKLWSRLLKLWTQGRRLKAKRAKAHHHHHH [FSD5] displays viability at 1 min, 8 µM of 87.7%

###

I'd appreciate it if you could supply viability at 1 min, 8 µM values for the items below.
Experiment: in vitro
Details: human, HeLa cells, Cell viability (%) (±St. Dev.; n = 3)
Ends that are not written are not given here.
Put down the number, then write its unit next to it.

According to the records, this sequence HHHHHHKWKLARAFARAIKKLYARALRRQARTGHHHHHH [FSD9] displays viability at 1 min, 8 µM of 82.3%

According to the records, this sequence HHHHHHLLKLWSRLLKLWTQGRRLKAKRAKAHHHHHH [FSD5] displays viability at 1 min, 8 µM of 85%

According to the records, this sequence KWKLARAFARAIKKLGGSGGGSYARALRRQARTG [FSD10] displays viability at 1 min, 8 µM of 83.4%

###

System: HeLa cells
Assay: GFP-NLS protein transduction assay (flow cytometry: Pos cells %, viability %, relative fluorescence intensity; microscopy)
Settings: Table 10.3e; Protocol B; HeLa; shuttle 20 μM; GFP-NLS 5 μM; 1 minute
Ends that are not written are not given here.
MEASUREMENT LABEL: Cell viability (%) (±St. Dev.; n = 3)
Provide the reading as a plain figure in %.

Case HHHKWKLFKKIGAVLKVLTTGYARAAARQARA [3His-CM18-PTD4] , HeLa cells, Cell viability (%) (±St. Dev.; n = 3) recorded as 39.2

Case KWKLFKKIGAVLKVLTTGGGSGGGSYARAAARQARA [CM18-L2-PTD4] , HeLa cells, Cell viability (%) (±St. Dev.; n = 3) recorded as 64.0

Case KWKLFKKIGAVLKVLTTGYARAAARQARA [CM18-PTD4] , HeLa cells, Cell viability (%) (±St. Dev.; n = 3) recorded as 33.9

Case HAHHAHHAHKWKLFKKIGAVLKVLTTGYARAAARQARA [3HA-CM18-PTD4] , HeLa cells, Cell viability (%) (±St. Dev.; n = 3) recorded as 43.6

Case HHHHHHKWKLFKKIGAVLKVLTTGYARAAARQARAHHHHHH [His-CM18-PTD4-His] , HeLa cells, Cell viability (%) (±St. Dev.; n = 3) recorded as 78.6

Case HHHAHHHKWKLFKKIGAVLKVLTTGYARAAARQARA [HA-CM18-PTD4] , HeLa cells, Cell viability (%) (±St. Dev.; n = 3) recorded as 68.3

Case HHHHHHHHHHHHKWKLFKKIGAVLKVLTTGYARAAARQARA [12His-CM18-PTD4] , HeLa cells, Cell viability (%) (±St. Dev.; n = 3) recorded as 33.4

Case KWKLFKKIGAVLKVLTTGGGSYARAAARQARA [CM18-L1-PTD4] , HeLa cells, Cell viability (%) (±St. Dev.; n = 3) recorded as 50.1

Case KWKLFKKIGAVLKVLTTGHHHHHHYARAAARQARA [CM18-His-PTD4] , HeLa cells, Cell viability (%) (±St. Dev.; n = 3) recorded as 57.7

###

Assay: in vitro
Settings: human, THP-1 cells
Ends that are not written are not given here.
MEASUREMENT LABEL: viability at 1 min, 2 µM (%)
Provide the reading as a plain figure in %.

According to the records, this sequence LLKLWSRLLKLWTQGGSGGGSGRRLKAKRAKA [FSD18] displays viability at 1 min, 2 µM of 98.6

According to the records, this sequence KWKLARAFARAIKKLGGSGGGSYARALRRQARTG [FSD10] displays viability at 1 min, 2 µM of 85.6

###

Test system: HeLa cells
Assay: GFP-NLS protein transduction assay (flow cytometry: Pos cells %, viability %, relative fluorescence intensity; microscopy)
Conditions: Table 10.1; Protocol B; HeLa; shuttle 50 μM; GFP-NLS 5 μM; 10 seconds
Ends that are not written are not given here.
MEASUREMENT LABEL: Cell viability (%) (±St. Dev.; n = 3)
Put down the number, then write its unit next to it.

Case HHHHHHKWKLFKKIGAVLKVLTTGRRRRRRRRR [His-CM18-9Arg] , HeLa cells, Cell viability (%) (±St. Dev.; n = 3) recorded as 45.8 ± 5.4%

Case HHHHHHKWKLFKKIGAVLKVLTTGYGRKKRRQRRR [His-CM18-TAT] , HeLa cells, Cell viability (%) (±St. Dev.; n = 3) recorded as 35.2 ± 5.7%

Case YGRKKRRQRRRCKWKLFKKIGAVLKVLTTG [TAT-CM18] , HeLa cells, Cell viability (%) (±St. Dev.; n = 3) recorded as 23.5 ± 1.1%

Case HHHHHHKWKLFKKIGAVLKVLTTGGWTLNSAGYLLKINLKALAALAKKIL [His-CM18-Transportan (TPT)] , HeLa cells, Cell viability (%) (±St. Dev.; n = 3) recorded as 41.3 ± 3.3%

Case YGRKKRRQRRRCWEAKLAKALAKALAKHLAKALAKALKACEA (cysteines drawn unpaired) [TAT-KALA] , HeLa cells, Cell viability (%) (±St. Dev.; n = 3) recorded as 95.6 ± 4.3%

###

Assay: in vitro
Details: human, HeLa cells
Ends that are not written are not given here.
I'd appreciate it if you could supply viability values for the items below.
Provide the reading as a plain figure in %.

According to the records, this sequence GLFEALLELLESLWELLLEAYARAAARQARA [JST-PTD4] displays viability of 70.2

According to the records, this sequence YGRKKRYMLRLWYQNLRMYCKKAYAQHRARQHAKL [FSD40] displays viability of 98.6

According to the records, this sequence HHHAHHHKWKLFKKIGAVLKVLTTGYARAAARQARA [HA-CM18-PTD4] displays viability of 53.2

According to the records, this sequence HHHHHHKWKLARAFARAIKKLYARALRRQARTGHHHHHH [FSD9] displays viability of 36.1

According to the records, this sequence HHHHHHKWKIARAFARSLKKLYARLLARQAKTGHHHHHH [FSD15] displays viability of 98.3

According to the records, this sequence HHHHHHKWKLFKKIGAVLKVLTTGGWTLNSAGYLLKINLKALAALAKKIL [His-CM18-Transportan] displays viability of 11.9

According to the records, this sequence HHHHHHKWKLFKKIGAVLKVLTTGYARAAARQARAHHHHHH [His-CM18-PTD4-His] displays viability of 29.4

According to the records, this sequence HHHHHHLLKLWSRLLKTWTQGRRLKAKSAQASTRQAHHHHHH [FSD19] displays viability of 97.4

According to the records, this sequence HHHHHHFLKIWSRLIKIWTQGRRKGAQAAFR [FSD21] displays viability of 96.2

According to the records, this sequence HHHHHHLLKLWSRLLKEWTQGRRLEAKRAEAHHHHHH [FSD23] displays viability of 98.2

###

Assay: in vitro
Settings: NK cells
Ends that are not written are not given here.
MEASUREMENT LABEL: viability at 0.25 h, 5 µM (%)
Provide the reading as a plain figure in %.

According to the records, this sequence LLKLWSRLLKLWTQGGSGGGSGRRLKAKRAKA [FSD18] displays viability at 0.25 h, 5 µM of 94.9

###

Assay: in vitro
Details: human, Jurkat cells
Ends that are not written are not given here.
MEASUREMENT LABEL: viability at 0.5 h, 2 µM (%)
Provide the reading as a plain figure in %.

According to the records, this sequence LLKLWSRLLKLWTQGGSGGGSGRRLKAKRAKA [FSD18] displays viability at 0.5 h, 2 µM of 97.4
